- Test system: MS2 coat protein
- test: apparent KD of MS2 coat protein; designed switch direction (-1 OFF switch, 1 ON switch): -1; higher = weaker reporter binding
- condition_details: input ligand: none
recorded_metric: apparent KD of MS2 coat protein (µM)
Just the number in µM, nothing appended.

Exercise: Reported apparent KD of MS2 coat protein, sequence CCGGCAUGAGGAUAUCCAUCUGGAUCAGACAAGAUCCUGAUGGAGAAGGCACAUGAGGAUCACCCAUGUUACGG [Mat - Exclusion 4 - Eli Mod - D56] (Eterna round: R97, puzzle: Exclusion 4) : ____
Solution: 0.132

Exercise: Reported apparent KD of MS2 coat protein, sequence AAGAAACAUGAGGAUCACCCAUGUGAGGAUAUGGCCCGCCCGGCGUGAGCUGGAUAAAUCAGAAGGCACAAAGG [salish99_ex1_r4_012] (Eterna round: R97, puzzle: Exclusion 1) : ____
Solution: 0.046

Exercise: Reported apparent KD of MS2 coat protein, sequence GCAUGUCUUAAGGAUAUGCUAAGGCGUGAGCCGGCAGAAGGUAAGACAUGAGGAUCACCCAUGUUUUCCUAAAA [jl-ex6-4.32 ViennaUCT mod] (Eterna round: R97, puzzle: Exclusion 6) : ____
Solution: 0.0207

Exercise: Reported apparent KD of MS2 coat protein, sequence GAAAACGUAGGAUAUUAAUACUCAGACAUGAGGAUCACCCAUGUUUGGUGGGUUUAAGAAUGAGAAGGGCGAUGAA [EX5 #6] (Eterna round: R97, puzzle: Exclusion 5) : ____
Solution: 0.049

Exercise: Reported apparent KD of MS2 coat protein, sequence AGUAAUUCAAGAGGAUAUCACAUGAGGAUCACCCAUGUAUAGCGCGCUACGCUAGUCCUCGUAUUUGAGAAGGUUUGAUAAAUG [JL ViennaUCT Quve mod 1] (Eterna round: R96, puzzle: Exclusion NG 2) : ____
Solution: 0.0171

====

- System: MS2 coat protein
- test: apparent KD of MS2 coat protein; designed switch direction (-1 OFF switch, 1 ON switch): -1; higher = weaker reporter binding
- condition_details: input ligand: none
Class (by apparent KD of MS2 coat protein) -- low (below 30 nM), intermediate (30 nM to below 70 nM), high (70 nM or more)

Exercise: Please report the category associated with CCUGGGUCAUCUCCCAGGAACAACAUGAGGAUCACCCAUGUCUAGGAUAUCCACCAGUCAAUAAAGGAGAAGGAGACGGUGGUU [Onlaxe] (Eterna round: R96, puzzle: Exclusion NG 3) , nothing else.
Solution: low

Exercise: Please report the category associated with GCGACGCUACAUGAGGAUCACCCAUGUCCUCACAUGAGAUGGUAGGAUAUUAUAUAUACAUUGUGUGAGAAGGAUCAUCGCCCA [Eternabot solution 2] (Eterna round: R96, puzzle: Exclusion NG 3) , nothing else.
Solution: high

Exercise: Please report the category associated with UGAGAGCAAGGAUAUACGUUGGUGUAUACCCGGGUAUGUAUACAUGAGGAUCACCCAUGUAGAAGGUGCACAAA [EX2 B.1] (Eterna round: R97, puzzle: Exclusion 2) , nothing else.
Solution: intermediate

Exercise: Please report the category associated with CAGUACUGAGGAUAUACAUGAGGAUCACCCAUGUGUGUGAGAUUUGUGUGGUUGUUUUGUAGAAGGCGGUGCUG [JR_Ex3_Sub031] (Eterna round: R97, puzzle: Exclusion 3) , nothing else.
Solution: high

Exercise: Please report the category associated with CCGACGUGAGGAUAUUAGAACGAGCAGACCUGAGCUCGUUCUGAGAAGGCACAUGAGGAUCACCCAUGUGAGAA [Eternabot (Original) Solution 50] (Eterna round: R97, puzzle: Exclusion 4) , nothing else.
Solution: intermediate

Exercise: Please report the category associated with CGGAUGUAAGGAUAUCGUGCAAGUUUCAAAAGAGGCUUGUGCGAGAAGGUACAUGAGGAUCACCCAUGUAGGUU [Omei Ex4 B6] (Eterna round: R97, puzzle: Exclusion 4) , nothing else.
Solution: high

Exercise: Please report the category associated with ACUUAUUGAGGAUAUACAUUAAAAUACAUGAGGAUCACCCAUGUUCUUCAAUGUAUAUAUGUAGAAGGCAGAAGAA [JL-ex5-4.29 Malcolm mod] (Eterna round: R97, puzzle: Exclusion 5) , nothing else.
Solution: low

Exercise: Please report the category associated with ACAUGUAAUGCAGGAUAUCUGACACAUGAGGAUCACCCAUGUGACCAGAGGAAUUGCUAUGAGUCGGAGAAGGGUAUGUACAUG [Ex NG2 #54] (Eterna round: R96, puzzle: Exclusion NG 2) , nothing else.
Solution: low

Exercise: Please report the category associated with UAAAGUAUAUAGGAUAUCUAGCUGGAAACAGCUAGAGAAGGAUGUACAUGAGGAUCACCCAUGUAAAACCUCAA [Ex6/17-A1] (Eterna round: R97, puzzle: Exclusion 6) , nothing else.
Solution: low

Exercise: Please report the category associated with UACGUGUCAGGAUAUUUGAAGCGAAUCACGAGCAUUCGCGUGGAGAAGGGACAUGAGGAUCACCCAUGUAGGCG [Eternabot (L1) Solution 32] (Eterna round: R97, puzzle: Exclusion 4) , nothing else.
Solution: high

Exercise: Please report the category associated with CCCGUGUUAGGAUAUAUGGAAGAGCGGACGGGCGCUCCAAGGUAGAAGGAACAUGAGGAUCACCCAUGUAAUAA [Teleerdion] (Eterna round: R97, puzzle: Exclusion 4) , nothing else.
Solution: low

Exercise: Please report the category associated with AGCGAAAAGACAGGAUAUGAGAAUAGAUAGAGCUCAGAAGGGUCACAUGAGGAUCACCCAUGUAAAGUCUUGAGGCUGCGUGGU [Prohibition 11 - Jieux - Exclusion NG 1] (Eterna round: R96, puzzle: Exclusion NG 1) , nothing else.
Solution: intermediate

Exercise: Please report the category associated with UUAAUUUAAGGGAUAGAUCAUUACAUGAGGAUCACCCAUGUUGAGGAUAUCAGCUCGAUUAGAGCUGAGAAGGCAACAAUAGGG [ExNG3/14-A1] (Eterna round: R96, puzzle: Exclusion NG 3) , nothing else.
Solution: intermediate

Exercise: Please report the category associated with AAUUAACAUCAGGAUAUGACUAGCCUCGGCUAGUCAGAAGGGAUGACAUGAGGAUCACCCAUGUGAUCAAUUAA [E6/2-A2] (Eterna round: R97, puzzle: Exclusion 6) , nothing else.
Solution: high

Exercise: Please report the category associated with UGUUGUCGCGUAGGAUAUGAGGAUCACCCAUAUAAAGGAUAUGAAAAGAAGGUUCUGAGGAUUACCCAGAAGGACGGGACAACU [pwkr exNG2 2xF5 2xFMN.17] (Eterna round: R96, puzzle: Exclusion NG 2) , nothing else.
Solution: intermediate

Exercise: Please report the category associated with AAGCAUUGCCAAAGGUAGUGCUUUACAUGAGGAUCACCCAUGUAGGAUAUGGUAGGCAAAGCUUACCAGAAGGACAUGAUAAUU [Mat - Exclusion NG 3 - Mod of JL - D13] (Eterna round: R96, puzzle: Exclusion NG 3) , nothing else.
Solution: intermediate

Exercise: Please report the category associated with AGCCACAGAGGAUAUACAUACAUCCAGUAGCGGAUAUCGCUACAUGAGGAUCACCCAUGUAGAAGGCUGUGGCA [Omei Ex2 BD B22] (Eterna round: R97, puzzle: Exclusion 2) , nothing else.
Solution: high

====

- Tested on: MS2 coat protein
- test: apparent KD of MS2 coat protein; higher = weaker reporter binding
- condition_details: Eterna round: R107; input ligand: none
Class (by apparent KD of MS2 coat protein) -- bin 0 = under 20 nM, bin 1 = from 20 nM up to 40 nM, bin 2 = 40 nM and over

Exercise: Please report the category associated with CCGAACAUGAGGAUCACCCAUGUUAGGGAUACCAGCUCAGACAUGGGCCCUUGGCAGCUCUAUAGCUGACGAAAGUCAGCAUCGG [#15 SameState-TheophyllineA] , nothing else.
Solution: bin 1

Exercise: Please report the category associated with UGGGAAGGAGGAAGGAGCGCCAUAAGGGUGACAGUCUGGGUACAUGAGGAUCACCCAUGUAGGCAGGUAGGUCGCCUCGCUCUCA [XArg-B15] , nothing else.
Solution: bin 0

Exercise: Please report the category associated with GGAGGUACCCGAAGGAGCGACAUGAGGAUCACCCAUGUCUCCCGUUAUGGGAGUUCCUUAGGUCAGGUAGGUCGCGGGUACCUCC [#1 Exclusion - Arginine B Attempt #1 (Inspired by Omei)] , nothing else.
Solution: bin 2

Exercise: Please report the category associated with ACAUGAGGAUCACCCAUGUUGAGCACAGAAGGAGCGUGAUUAAGCACAGGUAGGUCGCUGUACUUAUCGAGCGUUAGCUCGAUAC [JR_Nu_SSArginiA_Sub030] , nothing else.
Solution: bin 1

Exercise: Please report the category associated with UGGGUCGGAUGAGGAAAUUGUCCGACGUAUCGAGGACCGGUACGGCCGCCACUCGGUUGUACAUGAGGAUCACCCAUGUCAGGGU [#1 Same State - Tryptophan A Attempt #15 (HarryS)] , nothing else.
Solution: bin 2

Exercise: Please report the category associated with GGAUGGAACUCGGCCGCCACUGGUGAUCCUAAUGUACAUGAGGAUCACCCAUGUACAUGAGAAGAUAGGACCGGGAGAUAAGGGA [Tryptophan B V4 (+4G)] , nothing else.
Solution: bin 0

Exercise: Please report the category associated with GGACCAUGGAGCGAUACCAGCUUGAGUGUACUGGCCAGGUACAUGAGGAUCACCCAUGUAAGCCCUUGGCAGCGCUCCAUGGUCC [#1 Exclusion - Theophylline B Attempt #25 (HarryS)] , nothing else.
Solution: bin 0

Exercise: Please report the category associated with AAGAUACUCUGAAGGAGCGUCAUAAAACAUGAGGAUCACCCAUGUGCGCGGGUGUAAUUAUGACAGGUAGGUCGCAGAGUAUUUA [Arg B SS t2] , nothing else.
Solution: bin 2

Exercise: Please report the category associated with ACGCGUCAAGAGUAAAAUCCGUCAAGUGAUACCAGCCACAACGUAGGCCCUUGGCAGCACAUGAGGAUCACCCAUGUAAUAAGGA [Gedigerace] , nothing else.
Solution: bin 1

Exercise: Please report the category associated with UGGUACAUGAGGAUCACCCAUGUUCCAGAUACCAGAUACCCGGUUAUCCCUUGGCAGCUGGUGUUACAUGAGGAUCACCCAUGUU [Exclusion Theophylline A GF16] , nothing else.
Solution: bin 1

Values compiled from the supplement of paper PMC9170038.
